Recorded pKd values for a group of compounds are listed next.
- subject of test: Protein kinase C eta type (Homo sapiens)
- Sequence (P24723 whole entry): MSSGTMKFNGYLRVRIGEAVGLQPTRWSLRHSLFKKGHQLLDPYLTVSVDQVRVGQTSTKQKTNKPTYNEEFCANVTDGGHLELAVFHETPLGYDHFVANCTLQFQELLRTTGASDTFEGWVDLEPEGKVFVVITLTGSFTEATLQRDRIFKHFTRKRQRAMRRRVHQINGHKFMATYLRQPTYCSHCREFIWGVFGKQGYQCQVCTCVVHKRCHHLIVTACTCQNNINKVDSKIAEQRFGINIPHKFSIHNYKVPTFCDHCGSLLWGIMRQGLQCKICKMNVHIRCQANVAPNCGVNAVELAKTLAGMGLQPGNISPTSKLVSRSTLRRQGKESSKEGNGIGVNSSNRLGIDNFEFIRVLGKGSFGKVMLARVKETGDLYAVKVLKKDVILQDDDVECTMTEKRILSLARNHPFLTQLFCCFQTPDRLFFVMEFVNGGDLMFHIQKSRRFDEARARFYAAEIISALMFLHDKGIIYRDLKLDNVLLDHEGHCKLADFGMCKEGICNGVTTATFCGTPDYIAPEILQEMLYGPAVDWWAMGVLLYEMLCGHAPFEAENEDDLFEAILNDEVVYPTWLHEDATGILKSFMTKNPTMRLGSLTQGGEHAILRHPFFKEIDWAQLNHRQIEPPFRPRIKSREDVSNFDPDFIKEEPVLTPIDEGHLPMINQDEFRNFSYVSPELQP
- protocol details: Binding affinity to recombinant human PKCeta in after 2 hrs by microequilibrium dialysis assay
In textbook form, pKd equals minus log to base ten of the concentration in mol/L.

| smiles structure | subject of test | pKd |
| --- | --- | --- |
| CC1(C)[C@@H](O)CC[C@]2(C)[C@H]3C(=O)C=C4[C@@H]5C[C@@](C)(C(=O)O)CC[C@]5(C)CC[C@@]4(C)[C@]3(C)CC[C@@H]12 | Protein kinase C eta type (Homo sapiens) | 6.60 |

Switching to the query record.
query: Value lookup for pKd; key = "CN(C)c1ccc2c(CC(=O)NCCNC(=O)[C@@]3(C)CC[C@]4(C)CC[C@]5(C)C(=CC(=O)[C@@H]6[C@@]7(C)CC[C@H](O)C(C)(C)[C@@H]7CC[C@]65C)[C@@H]4C3)cc(=O)oc2c1"
result: 6.19
